Test system: MDRPA
Assay: MIC determination, microdilution broth method
Conditions: Pseudomonas aeruginosa, read-out: MIC (single use), strain P8; EA=P. clypearia water extract
MEASURED METRIC: MIC (µg/mL)
Just the number please, in µg/mL, no unit attached.

// below: answered compounds
INSERT INTO assay_data (structure_smiles, result) VALUES
  ('C[C@@H](O)[C@H]1C(=O)N2C(C(=O)O)=C(SCCN=CN)C[C@H]12', 64),
  ('CC(C)(O/N=C(\C(=O)N[C@@H]1C(=O)N2C(C(=O)[O-])=C(C[n+]3ccccc3)CS[C@H]12)c1csc(N)n1)C(=O)O', 256),
  ('C[C@H]1COc2c(N3CCN(C)CC3)c(F)cc3c(=O)c(C(=O)O)cn1c23', 1);

Prompt: Write down MIC measured for item NCC[C@H](O)C(=O)N[C@@H]1C[C@H](N)[C@@H](O[C@H]2O[C@H](CN)[C@@H](O)[C@H](O)[C@H]2O)[C@H](O)[C@H]1O[C@H]1O[C@H](CO)[C@@H](O)[C@H](N)[C@H]1O
Completion: 1

Prompt: Fill in reported MIC for this entry: CCN1CCN(C(=O)N[C@@H](C(=O)N[C@@H]2C(=O)N3C(C(=O)O)=C(CSc4nnnn4C)CS[C@H]23)c2ccc(O)cc2)C(=O)C1=O
Completion: 16

---

System: MDRPA
Assay: MIC determination, microdilution broth method;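 further: broth microdilution per NCCLS recommendations, testing Pithecellobium clypearia water or ethanol extracts against multidrug-resistant Pseudomonas aeruginosa, with MIC50 and MIC90 derived statistically from individual MICs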
Settings: Pseudomonas aeruginosa, read-out: MIC (single use), strain P4; EA=P. clypearia water extract
MEASURED METRIC: MIC (µg/mL)
Form entry: value (µg/mL) — number only.

Guide cases for MIC, answers given:
INSERT INTO measurements (structure_smiles, system_name, measured_metric, result) VALUES
  ('C[C@@H](O)[C@H]1C(=O)N2C(C(=O)O)=C(SCCN=CN)C[C@H]12', 'MDRPA', 'MIC', 32),
  ('C[C@H]1COc2c(N3CCN(C)CC3)c(F)cc3c(=O)c(C(=O)O)cn1c23', 'MDRPA', 'MIC', 8),
  ('CCN1CCN(C(=O)N[C@@H](C(=O)N[C@@H]2C(=O)N3C(C(=O)O)=C(CSc4nnnn4C)CS[C@H]23)c2ccc(O)cc2)C(=O)C1=O', 'MDRPA', 'MIC', 8),
  ('NCC[C@H](O)C(=O)N[C@@H]1C[C@H](N)[C@@H](O[C@H]2O[C@H](CN)[C@@H](O)[C@H](O)[C@H]2O)[C@H](O)[C@H]1O[C@H]1O[C@H](CO)[C@@H](O)[C@H](N)[C@H]1O', 'MDRPA', 'MIC', 1);

Prompt: Give the value of MIC reported for the following: CC(C)(O/N=C(\C(=O)N[C@@H]1C(=O)N2C(C(=O)[O-])=C(C[n+]3ccccc3)CS[C@H]12)c1csc(N)n1)C(=O)O
Completion: 256

---

Test system: MDRPA
Experiment: Checkerboard assay (combined-use MIC, FIC)
Assay type: cell-based, Pseudomonas aeruginosa
Conditions: 20 MDRPAs; antibiotic with EA (water extract)
We begin with a simple list: items and their reported share of strains with FIC ≤ 0.5.
Please make sure the unit comes right after the number.

Some compounds with known share of strains with FIC ≤ 0.5 results, for comparison:
INSERT INTO results (compound, system_name, measured_metric, result) VALUES
  ('CC(C)(O/N=C(\C(=O)N[C@@H]1C(=O)N2C(C(=O)[O-])=C(C[n+]3ccccc3)CS[C@H]12)c1csc(N)n1)C(=O)O [CAZ, Ceftazidime]', 'MDRPA', 'share of strains with FIC ≤ 0.5', '45%'),
  ('CCN1CCN(C(=O)N[C@@H](C(=O)N[C@@H]2C(=O)N3C(C(=O)O)=C(CSc4nnnn4C)CS[C@H]23)c2ccc(O)cc2)C(=O)C1=O [CFP, Cefoperazone]', 'MDRPA', 'share of strains with FIC ≤ 0.5', '35%'),
  ('C[C@H]1COc2c(N3CCN(C)CC3)c(F)cc3c(=O)c(C(=O)O)cn1c23 [LVX, Levofloxacin]', 'MDRPA', 'share of strains with FIC ≤ 0.5', '15%'),
  ('NCC[C@H](O)C(=O)N[C@@H]1C[C@H](N)[C@@H](O[C@H]2O[C@H](CN)[C@@H](O)[C@H](O)[C@H]2O)[C@H](O)[C@H]1O[C@H]1O[C@H](CO)[C@@H](O)[C@H](N)[C@H]1O [AMK, Amikacin]', 'MDRPA', 'share of strains with FIC ≤ 0.5', '35%');

Turning now to a further compound:
Prompt: Answer with the recorded share of strains with FIC ≤ 0.5 for the compound listed here: C[C@@H](O)[C@H]1C(=O)N2C(C(=O)O)=C(SCCN=CN)C[C@H]12 [IMP, imipenem]
Completion: 40%

---

Test system: MDRAB
Assay: Checkerboard assay (combined-use MIC, FIC)
Assay type: cell-based, Acinetobacter baumannii
Settings: 20 MDRABs; antibiotic with 60% ethanol extract
MEASURED METRIC: share of strains with FIC ≤ 0.5 (%)
Report the value in % with no unit label.

INSERT INTO assay_data (structure_smiles, value_units, result) VALUES
  ('CN(C)[C@@H]1C(O)=C(C(N)=O)C(=O)[C@@]2(O)C(O)=C3C(=O)c4c(O)cccc4[C@@](C)(O)[C@H]3C[C@@H]12', '%', 50),
  ('C[C@@H](O)[C@H]1C(=O)N2C(C(=O)O)=C(SCCN=CN)C[C@H]12', '%', 70),
  ('C[C@H]1COc2c(N3CCN(C)CC3)c(F)cc3c(=O)c(C(=O)O)cn1c23', '%', 5);

Let us move to another entry and its share of strains with FIC ≤ 0.5.
Prompt: Give the reported value of share of strains with FIC ≤ 0.5 for this record: CC(C)(O/N=C(\C(=O)N[C@@H]1C(=O)N2C(C(=O)[O-])=C(C[n+]3ccccc3)CS[C@H]12)c1csc(N)n1)C(=O)O
Completion: 10

---

Tested on: MDRPA
Assay: Checkerboard assay (combined-use MIC, FIC)
Format: cell-based, Pseudomonas aeruginosa
Conditions: 20 MDRPAs; antibiotic with 60% ethanol extract
Each record here notes measured MIC50 of the antibiotic after combined use.
State the answer as a number, implicitly in µg/mL.

Use these answered entries as a reference point.
INSERT INTO assay_data (compound, system_name, result) VALUES
  ('C[C@@H](O)[C@H]1C(=O)N2C(C(=O)O)=C(SCCN=CN)C[C@H]12 [IMP, imipenem]', 'MDRPA', 2),
  ('CCN1CCN(C(=O)N[C@@H](C(=O)N[C@@H]2C(=O)N3C(C(=O)O)=C(CSc4nnnn4C)CS[C@H]23)c2ccc(O)cc2)C(=O)C1=O [CFP, Cefoperazone]', 'MDRPA', 4),
  ('C[C@H]1COc2c(N3CCN(C)CC3)c(F)cc3c(=O)c(C(=O)O)cn1c23 [LVX, Levofloxacin]', 'MDRPA', 1),
  ('NCC[C@H](O)C(=O)N[C@@H]1C[C@H](N)[C@@H](O[C@H]2O[C@H](CN)[C@@H](O)[C@H](O)[C@H]2O)[C@H](O)[C@H]1O[C@H]1O[C@H](CO)[C@@H](O)[C@H](N)[C@H]1O [AMK, Amikacin]', 'MDRPA', 0.0625);

Prompt: Complete the entry with MIC50 of the antibiotic after combined use for CC(C)(O/N=C(\C(=O)N[C@@H]1C(=O)N2C(C(=O)[O-])=C(C[n+]3ccccc3)CS[C@H]12)c1csc(N)n1)C(=O)O [CAZ, Ceftazidime]
Completion: 8

---

Tested on: MDRPA
Experiment: Checkerboard assay (combined-use MIC, FIC)
Assay type: cell-based, Pseudomonas aeruginosa
Details: 20 MDRPAs; antibiotic with 60% ethanol extract
MEASURED METRIC: MIC90 of the antibiotic after combined use (µg/mL)
Numeric only. Scale: µg/mL

INSERT INTO results (structure_smiles, system_name, value_units, result) VALUES
  ('C[C@H]1COc2c(N3CCN(C)CC3)c(F)cc3c(=O)c(C(=O)O)cn1c23', 'MDRPA', 'µg/mL', 8),
  ('NCC[C@H](O)C(=O)N[C@@H]1C[C@H](N)[C@@H](O[C@H]2O[C@H](CN)[C@@H](O)[C@H](O)[C@H]2O)[C@H](O)[C@H]1O[C@H]1O[C@H](CO)[C@@H](O)[C@H](N)[C@H]1O', 'MDRPA', 'µg/mL', 2),
  ('CC(C)(O/N=C(\C(=O)N[C@@H]1C(=O)N2C(C(=O)[O-])=C(C[n+]3ccccc3)CS[C@H]12)c1csc(N)n1)C(=O)O', 'MDRPA', 'µg/mL', 64),
  ('CCN1CCN(C(=O)N[C@@H](C(=O)N[C@@H]2C(=O)N3C(C(=O)O)=C(CSc4nnnn4C)CS[C@H]23)c2ccc(O)cc2)C(=O)C1=O', 'MDRPA', 'µg/mL', 256);

Switching to the query record.
Prompt: Indicate the recorded MIC90 of the antibiotic after combined use value for this molecule: C[C@@H](O)[C@H]1C(=O)N2C(C(=O)O)=C(SCCN=CN)C[C@H]12
Completion: 16
